Data credit: paper PMC7318623

System: K562‐resistant cells
protocol-text: Induction of cell death by PI FACS analyses, without or with imatinib
Assay type: cell-based
assay-context: 10 μM compound + 1 μM imatinib, 72 h
Each entry below carries its reported cell death rate, compound in combination with imatinib.
Express the result in % but write the number alone.

Look over these answered cases.
cpd_smiles=CCCc1nc2ccc(Br)cc2n1Cc1ccc(-c2ccccc2C(=O)OC)cc1 value_reported=63
cpd_smiles=CCCc1nc2cc(Br)ccc2n1Cc1ccc(-c2ccccc2C(=O)OC)cc1 value_reported=31
cpd_smiles=CCCc1nc2ccccc2n1Cc1ccc(-c2ccccc2C(=O)O)cc1 value_reported=31

Now for another entry.
Give K562‐resistant cells cell death rate, compound in combination with imatinib for CCCc1nc2ccccc2n1Cc1ccc(-c2ccccc2C(=O)OC)cc1
80

---

target-under-test: PPARγ (Homo sapiens)
Sequence (P37231 238-503 limits assumed): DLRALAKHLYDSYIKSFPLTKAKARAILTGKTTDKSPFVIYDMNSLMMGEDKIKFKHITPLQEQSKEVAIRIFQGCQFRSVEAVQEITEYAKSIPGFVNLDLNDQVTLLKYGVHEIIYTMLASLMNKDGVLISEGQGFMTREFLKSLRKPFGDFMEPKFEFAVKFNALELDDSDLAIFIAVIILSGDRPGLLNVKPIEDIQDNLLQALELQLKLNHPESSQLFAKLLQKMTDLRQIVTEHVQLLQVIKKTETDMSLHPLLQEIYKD
protocol-text: PPARγ luciferase transactivation assay
measured-parameter: pEC50
By convention, pEC50 is the negative base-10 log of a molar concentration.

compound="O=C(O)c1ccccc1-c1ccc(Cn2c3ccccc3c3cc(Br)ccc32)cc1 [6 a]" value_reported=5.25

Please give the measured pEC50 for this compound: CCCc1nc2ccccc2n1Cc1ccc(-c2ccccc2C(=O)O)cc1 [3 b]
5.16

Value lookup for pEC50; key = CCc1c(C)n(Cc2ccc(-c3ccccc3C(=O)O)cc2)c2ccc(Br)cc12 [6 c]
5.02

Requested field: pEC50. Item: CCCc1nc2c(C)cc(-c3nc4ccccc4n3C)cc2n1Cc1ccc(-c2ccccc2C(=O)O)cc1 [telmisartan, reference compound]
5.32

Quick one: pEC50 of O=C(O)c1ccccc1-c1ccc(Cn2c3ccccc3c3ccccc32)cc1 [3 a] ?
4.98

Endpoint output: pEC50 of CCc1c(C)n(Cc2ccc(-c3ccccc3C(=O)O)cc2)c2ccccc12 [3 c] . Value?
5.16
